System: HS 578T breast
assayInfo: NCI tumour cell line growth inhibition, 48 h; in the data active = GI50 below about 0.43 µM; inactive = the rest
Give one outcome, nothing more. List: Yes for active, No for inactive

Problem: GET /call?item= CC1(C)C(=O)/C(=C\c2cccnc2)C[C@]2(C)[C@H]3CC[C@@H]4[C@@H](C(=O)/C=C/c5ccncc5)CC[C@@]4(C)[C@]3(C)CC[C@@H]12 returns the recorded outcome of this test.
Result: No

Problem: GET /call?item= O=C1OCC2=C1C(c1ccccc1)c1cc3c(cc1N2CCO)OCCO3 (stereo not given) returns the recorded outcome of this test.
Result: Yes

Problem: GET /call?item= COc1cc2c3c(n(C)c(=O)c2cc1OC)-c1cc2c(cc1/C3=C\CCNCCCN)OCO2 returns the recorded outcome of this test.
Result: No

Problem: GET /call?item= CC(=O)c1cc(O)c2ccccc2c1O returns the recorded outcome of this test.
Result: No

Problem: GET /call?item= O=C(c1ccccc1)c1c(C(F)(F)F)n([O-])c2ccc(C(F)(F)F)cc2[n+]1=O returns the recorded outcome of this test.
Result: No

Problem: GET /call?item= Nc1ncc(-c2cccc(S(N)(=O)=O)c2)c2scc(-c3ccc(F)c(Cl)c3)c12 returns the recorded outcome of this test.
Result: No

Problem: GET /call?item= NC(=S)NN=C1CSSC1 returns the recorded outcome of this test.
Result: No

Problem: GET /call?item= COc1ccc2ccc3oc([N+](=O)[O-])cc3c2c1 returns the recorded outcome of this test.
Result: Yes

Problem: GET /call?item= C=CC(COC(c1ccccc1)(c1ccccc1)c1ccccc1)N(CC)CC (stereo not given) returns the recorded outcome of this test.
Result: No

# next compound below
Problem: GET /call?item= CC#Cc1nc(Nc2cc(C)[nH]n2)c2ccccc2n1 returns the recorded outcome of this test.
Result: No
